Target: human recombinant mGluR5 (Homo sapiens, UniProt P41594)
Construct: hygromycin and geneticin selection, tetracycline-regulated
Sequence (P41594 21-1212): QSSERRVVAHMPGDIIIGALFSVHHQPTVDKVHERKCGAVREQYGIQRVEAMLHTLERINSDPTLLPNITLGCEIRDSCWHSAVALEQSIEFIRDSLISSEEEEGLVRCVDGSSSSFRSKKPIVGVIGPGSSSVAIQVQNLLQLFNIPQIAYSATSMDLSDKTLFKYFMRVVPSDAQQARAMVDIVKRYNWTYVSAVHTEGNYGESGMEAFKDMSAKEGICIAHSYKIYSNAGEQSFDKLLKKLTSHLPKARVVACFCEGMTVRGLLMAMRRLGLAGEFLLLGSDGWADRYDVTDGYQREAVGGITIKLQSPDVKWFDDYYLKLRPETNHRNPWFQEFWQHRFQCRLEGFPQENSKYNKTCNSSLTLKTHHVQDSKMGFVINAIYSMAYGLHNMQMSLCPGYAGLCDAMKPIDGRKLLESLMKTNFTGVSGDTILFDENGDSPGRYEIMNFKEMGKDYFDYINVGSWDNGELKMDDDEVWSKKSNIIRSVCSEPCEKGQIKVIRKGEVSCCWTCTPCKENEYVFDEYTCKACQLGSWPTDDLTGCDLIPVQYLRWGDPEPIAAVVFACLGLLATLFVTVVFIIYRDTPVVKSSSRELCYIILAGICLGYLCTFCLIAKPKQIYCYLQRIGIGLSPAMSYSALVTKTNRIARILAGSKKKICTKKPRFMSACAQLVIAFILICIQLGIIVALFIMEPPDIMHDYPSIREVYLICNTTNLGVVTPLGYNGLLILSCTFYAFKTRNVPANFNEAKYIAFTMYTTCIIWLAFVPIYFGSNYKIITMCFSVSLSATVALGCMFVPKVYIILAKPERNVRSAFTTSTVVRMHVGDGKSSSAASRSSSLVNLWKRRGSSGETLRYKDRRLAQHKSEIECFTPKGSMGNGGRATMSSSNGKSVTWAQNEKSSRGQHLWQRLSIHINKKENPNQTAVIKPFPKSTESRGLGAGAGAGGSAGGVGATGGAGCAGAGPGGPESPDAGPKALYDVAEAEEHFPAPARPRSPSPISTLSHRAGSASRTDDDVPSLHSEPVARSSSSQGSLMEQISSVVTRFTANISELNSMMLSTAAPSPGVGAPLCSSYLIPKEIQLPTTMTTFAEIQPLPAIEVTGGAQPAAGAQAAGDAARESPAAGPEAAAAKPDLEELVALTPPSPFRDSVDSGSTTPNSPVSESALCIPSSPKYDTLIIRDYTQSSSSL
Assay: Positive modulation of mGluR5, calcium based FLIPR assay in HEK 293 cell line
Conditions: EC50 of the modulation; HEK 293 cells expressing human recombinant mGluR5; glutamate at approximately 5% basal stimulation; peak height of Ca fluorescence signal
pEC50: −log10 of the molar value.
Rule: pEC50 under 7 gives criterion not met, otherwise criterion met.

Does Cc1cc(-c2cn(CC(=O)N3CCc4nc(N)sc4CC3)c(-c3ccccc3)n2)ccc1F [Example 7.01.02.] have a reported pEC50 of at least 7? criterion not met

Now consider Cc1cc(-c2cn(CC(=O)N3CCN(c4cc(F)ccn4)C(=O)C3)c(-c3ccc(F)cc3)n2)ccc1F [Example 7.01.25] . criterion met

Now consider Cc1nc2c(o1)CN(C(=O)Cn1cc(-c3ccc(F)cc3)nc1-c1ccccc1)CC2 [Example 7.01.07.] . criterion not met

Now consider Cc1nc2c(o1)CN(C(=O)Cn1cc(-c3ccc(F)cc3)nc1-c1ccc(F)cc1)CC2 [Example 7.01.15.] . criterion not met

Now consider Cc1cccc(-c2cn(CC(=O)N3Cc4nc(C)sc4C3)c(-c3ccccc3)n2)c1 [Example 7.01.19.] . criterion not met

Now consider Cc1nc2c(s1)CCN(C(=O)Cn1cc(-c3ccc(F)c(C)c3)nc1C(C)C)CC2 [Example 7.01.10.] . criterion not met

Now consider Cc1cc(-c2cn(CC(=O)N3CCN(c4ccccn4)C(=O)C3)c(-c3ccc(F)cc3)n2)ccc1F [Example 7.01.26] . criterion met

Now consider CC(=O)Nc1nc2c(s1)CCN(C(=O)Cn1cc(-c3ccc(F)c(C)c3)nc1-c1ccccc1)CC2 [Example 7.01.28] . criterion not met

Now consider Cc1cc(-c2cn(CC(=O)N3CCc4nc(N)sc4C3)c(-c3ccccc3)n2)ccc1F [Example 7.01.27] . criterion not met

Now consider Cc1cc(-c2cn(CC(=O)N3CCN(c4cccc(C#N)c4)C(=O)C3)c(-c3ccc(F)cc3)n2)ccc1F [Example 7.01.23] . criterion not met

Now consider Nc1nc2c(s1)CCN(C(=O)Cn1cc(-c3ccc(F)cc3)nc1-c1ccccc1)CC2 [Example 7.01.08.] . criterion not met

----------
Target: human recombinant mGluR5 (Homo sapiens, UniProt P41594)
Construct: hygromycin and geneticin selection, tetracycline-regulated
Assay: Positive modulation of mGluR5, calcium based FLIPR assay in HEK 293 cell line
Details: EC50 of the modulation; HEK 293 cells expressing human recombinant mGluR5; glutamate at approximately 5% basal stimulation; peak height of Ca fluorescence signal
Range-based classes on measured EC50: lower level (below 100 nM), middle level (100 nM to below 300 nM), upper level (300 nM or more)

Which EC50 band matches Cc1cccc(-c2cn(CC(=O)N3CCc4nc(C)sc4CC3)c(-c3ccccc3)n2)c1 [Example 7.01.20.] ? middle level

Now consider Cc1nc2c(s1)CCN(C(=O)Cn1cc(-c3ccc(F)cc3)nc1-c1ccccc1)CC2 [Example 7.01.09.] . middle level

Now consider Cc1cccc(-c2cn(CC(=O)N3CCc4nc(C)oc4C3)c(-c3ccccc3)n2)c1 [Example 7.01.22.] . middle level

Now consider Cc1nc2c(s1)CCN(C(=O)Cn1cc(-c3ccc(F)c(C)c3)nc1-c1ccc(F)cc1)CC2 [Example 7.01.12.] . lower level

Now consider Cc1cc(-c2cn(CC(=O)N3CCc4nc(N)sc4CC3)c(C3CCCCC3)n2)ccc1F [Example 7.01.05.] . upper level

Now consider COc1cccc(N2CCN(C(=O)Cn3cc(-c4ccc(F)c(C)c4)nc3-c3ccc(F)cc3)CC2=O)c1 [Example 7.01.24] . lower level

Now consider Cc1nc2c(o1)CN(C(=O)Cn1cc(-c3ccc(F)c(C)c3)nc1-c1ccc(F)cc1)CC2 [Example 7.01.13.] . lower level

Now consider Cc1cccc(-c2cn(CC(=O)N3CCc4nc(N)sc4CC3)c(-c3ccccc3)n2)c1 [Example 7.01.21.] . middle level

Now consider Cc1cc(-c2cn(CC(=O)N3CCc4nc(N)sc4CC3)c(-c3ccc(F)cc3)n2)ccc1F [Example 7.01.11.] . middle level

Now consider Nc1nc2c(s1)CCN(C(=O)Cn1cc(-c3ccc(F)cc3)nc1-c1ccc(F)cc1)CC2 [Example 7.01.18.] . upper level

Now consider Cc1nc2c(s1)CCN(C(=O)Cn1cc(-c3ccc(F)cc3)nc1-c1ccc(F)cc1)CC2 [Example 7.01.17.] . lower level

Now consider Cc1nc2c(s1)CN(C(=O)Cn1cc(-c3ccc(F)c(C)c3)nc1-c1ccccc1)CC2 [Example 7.01.31] . middle level

Now consider Cc1nc2c(s1)CCN(C(=O)Cn1cc(-c3ccc(F)c(C)c3)nc1C1CCCCC1)CC2 [Example 7.01.06.] . upper level

Now consider Cc1nc2c(o1)CN(C(=O)Cn1cc(-c3ccc(F)c(C)c3)nc1-c1ccccc1)C2 [Example 7.01.33] . middle level

Each recorded value in this set is attributed to patent US8796467B2.
